Source: the supplement of paper PMC7125110

B1: glmS ribozyme (parent)
chain: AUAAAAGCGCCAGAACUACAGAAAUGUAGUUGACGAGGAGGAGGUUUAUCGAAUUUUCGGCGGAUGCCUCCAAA

Variants of: B1
Assay: self-cleavage kobs at 10000 uM GlcN6P; higher = faster cleavage; RNA array
Details: with glucosamine-6-phosphate
This sample holds only a part of the variants without activity.
property: self-cleavage kobs at 10000 uM GlcN6P (s⁻¹)
Write it as a number; the unit s⁻¹ goes unstated.

// solved cases for self-cleavage kobs at 10000 uM GlcN6P follow
• C16U C70A = 0.000177
• A39C G44A = 2.63e-05
• A12G C58A C71A = 5.83e-05
• A15G U30A C67A C70U = 0.00115
• A14G U55C C70U = 0.00236
• G29U A42U = 2.15e-05
• A6C A14G = 0.000226
• A48G A64G = 9.59e-05

self-cleavage kobs at 10000 uM GlcN6P in this record for U30A C67A : 0.00131

Value of self-cleavage kobs at 10000 uM GlcN6P reported for the variant A12G C70A is 0.000108

In plain terms, C19A has a documented self-cleavage kobs at 10000 uM GlcN6P of 0.0275

Field self-cleavage kobs at 10000 uM GlcN6P (entry A12G U45A C71U ) reads 0.00191

The reported value for A42U U46G in terms of self-cleavage kobs at 10000 uM GlcN6P is 5.41e-05
